B1: Twister Ribozyme (parent)
chain: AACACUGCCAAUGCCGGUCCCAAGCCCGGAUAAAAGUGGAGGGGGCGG

Variants of: B1
Assay: self-cleavage, relative activity (ratio to wild type); higher = more cleavage; co-transcriptional
readout_name: self-cleavage

>>> df
                              sequence_entry   readout_name  recorded_value
 0  CACACUGCCAAUGCCGGUCCCAAGCCCGGAUAUAAGUGGAGGGGGCGG [A1C A33U]  self-cleavage           0.268
 1  AACACUGCCAAUGCCGGUCGCAAGCCAGGAUAAAAGUGGAGGGGGCGG [C20G C27A]  self-cleavage           0.102
 2  AACCCUGCCAAUGCCGGUCCCAAGCCCGGAUAAAAGUGGAGAGGGCGG [A4C G42A]  self-cleavage          0.0686
 3  AACAGUGCCAAAGCCGGUCCCAAGCCCGGAUAAAAGUGGAGGGGGCGG [C5G U12A]  self-cleavage           0.821
 4  AACAAUGCCAAUGCCGGUCCCAAGCCCGGAUAAAAGUGGAGGGGGGGG [C5A C46G]  self-cleavage           0.689
 5  AACACUGCCAAUUCCGGUCCCAAGCCCGGGUAAAAGUGGAGGGGGCGG [G13U A30G]  self-cleavage           0.926
 6  AACACUGCCAAUGCCGGUCCCAAGCCCGGAUAAAAGAGGAGGGGGCGU [U37A G48U]  self-cleavage           0.811
 7  AACACUGCCAAUGCCGGUCACAAGUCCGGAUAAAAGUGGAGGGGGCGG [C20A C25U]  self-cleavage           0.112
 8  AACACUGCCAAUGCCGGUCCCAAGCCCGGAGAGAAGUGGAGGGGGCGG [U31G A33G]  self-cleavage            1.02
 9  AACACUGCCAAUGUCGGUCCCAAGCCCGGAUAAAAGUGGAGGUGGCGG [C14U G43U]  self-cleavage           0.526
10  AACACUGCCAAUGCCGGUCCCAAGACCGGAUAAAAGUGCAGGGGGCGG [C25A G39C]  self-cleavage          0.0833
11  AACACUGCCAAUGCCGAUCCCAAGCCCGGAUAAAAGUGGAGGGGCCGG [G17A G45C]  self-cleavage           0.278
12  AACACUGCCAAUGUCGGUCGCAAGCCCGGAUAAAAGUGGAGGGGGCGG [C14U C20G]  self-cleavage             0.2
13  AACACUGCCAAUACCGGUCCCAAGCUCGGAUAAAAGUGGAGGGGGCGG [G13A C26U]  self-cleavage           0.142
14  AACACUGCCAAUGCCGGUCCCAGGCCCGAAUAAAAGUGGAGGGGGCGG [A23G G29A]  self-cleavage           0.307
15  AACACUGCCAAUGCCGGUCCCAAGCCCGGCUAAAAAUGGAGGGGGCGG [A30C G36A]  self-cleavage           0.164
16  AACACUGUCAAUGCCGGUCCCAAGCCCGGAUAAAAGUGGAGGGGGAGG [C8U C46A]  self-cleavage             0.5
17  AACACUGCGAAUGCCGGCCCCAAGCCCGGAUAAAAGUGGAGGGGGCGG [C9G U18C]  self-cleavage          0.0886
18  AACACUGCCAAUGCCGGUCCCAAGUCCGGAUAAAAGUGAAGGGGGCGG [C25U G39A]  self-cleavage           0.141
19  AACACUGCCAAUGCAAGUCCCAAGCCCGGAUAAAAGUGGAGGGGGCGG [C15A G16A]  self-cleavage           0.351
20  AACACUGCCAAUGCCGGUCCCAAGCCUGUAUAAAAGUGGAGGGGGCGG [C27U G29U]  self-cleavage           0.441
21  AACAAUGCCAAUGCCGGUCCUAAGCCCGGAUAAAAGUGGAGGGGGCGG [C5A C21U]  self-cleavage          0.0869
22  AAGACUGCCAAUGCAGGUCCCAAGCCCGGAUAAAAGUGGAGGGGGCGG [C3G C15A]  self-cleavage           0.161
23  UACACUGCCAAUGCCGGUCCCAAGCCCGGAUAAAAGUGGAGGGGGGGG [A1U C46G]  self-cleavage          0.0557
24  AACACUGCCAAUGCCGGUCCCAAGCCCGGACAAAAGUUGAGGGGGCGG [U31C G38U]  self-cleavage           0.904
25  AACACUGCCAAUGCCGGUCCCAAGCCCGGAUAAAGGUGGAGGGGGCGC [A35G G48C]  self-cleavage            1.04
26  AACACUGCCAAUGCCGGUCCCAAGCUCGGAUAGAAGUGGAGGGGGCGG [C26U A33G]  self-cleavage            0.17
27  AACACUGCCAAUGCCGGUCCCAAGCUCGGAUAAAAGUGGAGGUGGCGG [C26U G43U]  self-cleavage           0.111
28  UACACUGCCAAUGCCGGUUCCAAGCCCGGAUAAAAGUGGAGGGGGCGG [A1U C19U]  self-cleavage          0.0395
29  ACCACUGCCAAUGCCGGUCCAAAGCCCGGAUAAAAGUGGAGGGGGCGG [A2C C21A]  self-cleavage          0.0892
30  AACACUACCAAUGCCGGUCCCAAGCCCGGAUAAAAGUGGAGGGGUCGG [G7A G45U]  self-cleavage           0.177
31  AACACUGCCCAUGCCGGUCCCAAGCCCAGAUAAAAGUGGAGGGGGCGG [A10C G28A]  self-cleavage           0.841
32  AACACUGCCAAUGCCGGUCCCAAGCCCGGAUAAACAUGGAGGGGGCGG [A35C G36A]  self-cleavage           0.491
33  AACACUGCCAAUGCCGGUCCCAAGCCCGGAUCAAAGUAGAGGGGGCGG [A32C G38A]  self-cleavage            1.03
34  AACACUGCCCAUUCCGGUCCCAAGCCCGGAUAAAAGUGGAGGGGGCGG [A10C G13U]  self-cleavage           0.677
35  AACACUGCCAAUGCCGGACCCAAGCCCGAAUAAAAGUGGAGGGGGCGG [U18A G29A]  self-cleavage            0.41
36  AACACUGCCUAUGCCGGUCCCAAGCCCGGAUUAAAGUGGAGGGGGCGG [A10U A32U]  self-cleavage           0.842
37  AACAUUGCCAAUCCCGGUCCCAAGCCCGGAUAAAAGUGGAGGGGGCGG [C5U G13C]  self-cleavage            0.13
38  AACACUGCCCAUGCCAGUCCCAAGCCCGGAUAAAAGUGGAGGGGGCGG [A10C G16A]  self-cleavage           0.726
